assay: melting temperature; fluorescence melt of hairpins on a sequencing array, two-state fit, raised by 9.35 °C to match UV melts; conditions: sodium 0.088 M
Classification by Tm | ranges: zone 1: < 40 °C; zone 2: ≥ 40 °C and < 50 °C; zone 3: ≥ 50 °C

Please review the entries below; each comes with its answer.
>>> assigned_category("GGACAGAAATGTCC (((((....)))))")
"zone 3"
>>> assigned_category("GAACAGGGAAACCTGTCC (.(((((....))))).)")
"zone 1"
>>> assigned_category("GATCCGGATCCGGATC ((((((....))))))")
"zone 3"
>>> assigned_category("GTCTGTCGAAAGACCGAC (((.(((....))).)))")
"zone 2"
>>> assigned_category("GACCAGGGAAACCTGGCC (.(((((....))))).)")
"zone 2"

Kindly state the category for this sequence: GCGCGGCGAAAGCTTCGC (((..((....))..))) zone 3

Try this sequence next: GCGTGTCGAAAGACTCGC (((.(((....))).))) zone 3

Try this sequence next: GCGCCCGAAAGGGCCCGC ((((((....)))..))) zone 2

Try this sequence next: GGTTGGGGAAACCTAGCC ((.(.((....)).).)) zone 1

###

experiment: melting temperature; fluorescence melt of hairpins on a sequencing array, two-state fit, raised by 9.35 °C to match UV melts; conditions: sodium 0.088 M
Quantity name: Tm (°C)
Please give a number only; it is taken to be in °C.

Use these answered entries as a reference point.
>>> endpoint_result("CGGTGCGGAAACGCCCG (((.(((....))))))")
58
>>> endpoint_result("GCGCAGCGAAAGCTTGGC ((..(((....)))..))")
38.5
>>> endpoint_result("GTAGCCGAAAGGCGTAC ((((((....))).)))")
57.5
>>> endpoint_result("CATGTGAAAACATG (((((....)))))")
47.2
>>> endpoint_result("GATCAATGAATTGATC ((((((....))))))")
46.3

Next sequence, please.
Can you look up the measured Tm of GCCGACCGAAAGGTAGGC (((.(((....))).))) for me? 69.3

###

assay: melting temperature; fluorescence melt of hairpins on a sequencing array, two-state fit, raised by 9.35 °C to match UV melts; details: sodium 0.088 M
# if measured Tm < 40 °C: 1  # else: -1

>>> assigned_category("GTGCACCCGAAAGGGCAC (((..(((....))))))")
-1

Is Tm strictly under 40 °C for the entry GGATAGCCGAAAGGCTCC (((..(((....)))))) ? 1

Try this sequence next: GGAAGCGAAAGCTTATCC ((((((....)))..))) 1

Try this sequence next: GGGGTGGCGAAAGCCCCC (((..(((....)))))) -1

Try this sequence next: GCCCAAGGAAACTTAGGC (((.(((....))).))) 1

###

assay: melting temperature; fluorescence melt of hairpins on a sequencing array, two-state fit, raised by 9.35 °C to match UV melts; conditions: sodium 0.088 M
Quantity name: Tm (°C)
Please give a number only; it is taken to be in °C.

>>> endpoint_result("GCAAGCGCGAAAGCGTGC (((..(((....))))))")
47.5
>>> endpoint_result("GATCGTTGAACGATC ((((((...))))))")
53.6
>>> endpoint_result("GCTCAAGGAAACTTGGGC ((.((((....)))).))")
50
>>> endpoint_result("GATCCGGCTCCGGATC ((((((....))))))")
59.1
>>> endpoint_result("GATCCCCAGAGGGATC ((((((....))))))")
59.8

Can you look up the measured Tm of GTACTCGAAAGAGTTTAC ((((((....)))..))) for me? 30

###

assay: melting temperature; fluorescence melt of hairpins on a sequencing array, two-state fit, raised by 9.35 °C to match UV melts; conditions: sodium 0.088 M
# if measured Tm < 40 °C: Satisfied  # else: Not satisfied

>>> assigned_category("GTCCATGAAAATGGAC ((((((....))))))")
"Not satisfied"
>>> assigned_category("GCCCTCGAAAGAGCTGGC ((((((....)))..)))")
"Not satisfied"
>>> assigned_category("GATTCAGGAAACCGAATC (((((.(....).)))))")
"Satisfied"
>>> assigned_category("GATCGGACCTCCGATC ((((((....))))))")
"Not satisfied"
>>> assigned_category("GATCACTGGGTGATC ((((((...))))))")
"Not satisfied"

Is Tm strictly under 40 °C for the entry GTTGACGAAAGTCGCAAC ((((((....)))..))) ? Satisfied

Try this sequence next: GTAGAGGAAACTCTAC ((((((....)))))) Not satisfied

Try this sequence next: GTTCTGGCGAAAGCCAAC (((..(((....)))))) Satisfied

Try this sequence next: GCAGGGCGAAAGCCGCGC ((..(((....)))..)) Not satisfied

Try this sequence next: GCGTTGTAACGC ((((....)))) Not satisfied

Try this sequence next: TATGGGAAACCATA (((((....))))) Satisfied

Try this sequence next: GGTAGGGGAAACCCTATC (.(((((....))))).) Not satisfied

###

experiment: folding enthalpy; higher = less favourable; fluorescence melt of hairpins on a sequencing array, two-state fit; conditions: sodium 0.088 M
Rule: folding enthalpy of -30 kcal/mol or more gives TRUE; anything lower gives FALSE.

>>> assigned_category("GCACAACGAAAGTTTGC (((.(((....))))))")
"TRUE"
>>> assigned_category("GGTCTTGGAAACAAGACC (((((((....)))))))")
"FALSE"
>>> assigned_category("GTAGTGGGAAACCATTGC (.(.(((....))).).)")
"TRUE"

Check this sequence for folding enthalpy at or above -30 kcal/mol: GAGAGGCGAAAGCCACTC (((.(((....))).))) TRUE

Try this sequence next: GACAGCGAAAGCTAGGTC ((((((....)))..))) TRUE

Try this sequence next: GCTAAACGAAAGTTAGC (((.(((....)))))) TRUE

###

Listed here are sequences together with their documented Tm.
assay: melting temperature; fluorescence melt of hairpins on a sequencing array, two-state fit, raised by 9.35 °C to match UV melts; conditions: sodium 0.088 M
Please give a number only; it is taken to be in °C.

>>> endpoint_result("GCGTTGCGAAAGCAGTGC ((..(((....)))..))")
51.6
>>> endpoint_result("GGCCCCGAAAGGGTTGCC ((((((....)))..)))")
55.3
>>> endpoint_result("GTGTCGCGAAAGCGTCAC (((.(((....))).)))")
63
>>> endpoint_result("GCGGGTACCCGC ((((....))))")
67.7
>>> endpoint_result("GATCTAGTTATAGATC ((((((....))))))")
48.9

Can you look up the measured Tm of GATCACGTTTGTGATC ((((((....)))))) for me? 58.5

###

experiment: folding enthalpy; higher = less favourable; fluorescence melt of hairpins on a sequencing array, two-state fit; settings: sodium 0.088 M
Quantity name: folding enthalpy
Record the result as number plus unit.

Can you look up the measured folding enthalpy of GCCTACGAAAGTAAGGC ((((((....))).))) for me? -31.3 kcal/mol

Try this sequence next: GATCGTGCTTACGATC ((((((....)))))) -38.4 kcal/mol

Try this sequence next: GGACCTGGAAACAGGCCC ((.((((....)))).)) -25.8 kcal/mol

Try this sequence next: GTACGCGAAAGCGGTTAC ((((((....)))..))) -8.32 kcal/mol

Try this sequence next: ACCGTGAAAACGGT (((((....))))) -17 kcal/mol

Try this sequence next: GGCAACGGAAACGTTGTC (.(((((....))))).) -39.2 kcal/mol

Try this sequence next: GTGGCCGCGAAAGCGCAC (((..(((....)))))) -9.11 kcal/mol

Try this sequence next: GGAGGAGGAAACCCCTCC (((((.(....).))))) -26.7 kcal/mol

Try this sequence next: GATGTGACGAAAGTCATC (((..(((....)))))) -12 kcal/mol

Try this sequence next: GGCTGGGGAAACCTGGCC (((..((....))..))) -30.6 kcal/mol

Try this sequence next: GATCTACGATTAGATC ((((((....)))))) -27.4 kcal/mol

Try this sequence next: GAGTTACGAAAGTAGCTC (((.(((....))).))) -34.5 kcal/mol

Try this sequence next: GTATTCGGAAACGGATAC ((((.((....)).)))) -33.2 kcal/mol

Try this sequence next: GGCACCGGAAACGATGCC ((((.((....)).)))) -43.2 kcal/mol

Try this sequence next: GCCCAACGAAAGTTCGGC (((.(((....))).))) -29.9 kcal/mol

Try this sequence next: GGTTACGCGAAAGCGACC (((..(((....)))))) -12.4 kcal/mol

Try this sequence next: GGCGACGGAAACGTCGTC (.(((((....))))).) -26.5 kcal/mol

Try this sequence next: GATCGCATGAGCGATC ((((((....)))))) -27.4 kcal/mol
